Test system: DU-145 prostate
Experiment: NCI tumour cell line growth inhibition, 48 h
Listed here: items and their measured GI50.

Solved cases (3 shown):
{"Molecule": "CCOC(=O)c1cc2c(cc1Cl)SC(N(c1ccc(F)cc1)S(=O)(=O)c1ccc(OC)cc1)=NS2(=O)=O", "Measurement target": "DU-145 prostate", "GI50": "16.1 µM"}
{"Molecule": "CC[C@@]1(O)C(=O)NCc2c1cc1n(c2=O)Cc2cc3cc4c(cc3nc2-1)OCO4", "Measurement target": "DU-145 prostate", "GI50": "0.13 µM"}
{"Molecule": "S=C(Nc1ccccc1)c1ccccn1", "Measurement target": "DU-145 prostate", "GI50": "53 µM"}

[Q] Reported GI50 for O=C1N=C2c3c(sc4c3CCCC4)N=CN2C1N=Nc1ccc(Cl)cc1 (stereo not given) : what is it?
[A] 0.291 µM

[Q] Record request: GI50 value, item `FC(F)(F)c1ccc2c(c1)N(CCCN1CCN(C3CC3)CC1)c1ccccc1S2`
[A] 13.8 µM
